Numbers sourced from the RNAGym collection of RNA variant scans (doi:10.7554/elife.80360).

B1: HDV Ribozyme (parent)
chain: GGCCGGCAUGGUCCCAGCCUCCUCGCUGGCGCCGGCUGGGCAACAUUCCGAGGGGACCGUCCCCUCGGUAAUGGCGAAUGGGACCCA

Variants of: B1
assay: self-cleavage, relative activity (ratio to wild type); higher = more cleavage; co-transcriptional
Criterion: self-cleavage meeting or surpassing 0.3. Met: condition met. Not met: condition not met.

primary-sequence | assigned-category
GGCCGUCAUGGUCCCAGCCUCCUCGCUGGCGCCGGCUGGGCAUCAUUCCGAGGGGACCGUCCCCUCGGUAAUGGCGAAUGGGACCCA | condition not met
GGCCGGCAUGGUCCAAGCCUCCUCGCUGGCGCCGGCUGGGCAACAUUCCGAGGGGACCGUCCCCUCGGUAGUGGCGAAUGGGACCCA | condition met
GGCCGGCAUGGUCCCAGCCUCCUCGCUGGCGCCGGGUGGGCAACAUUCCGAGGGGACUGUCCCCUCGGUAAUGGCGAAUGGGACCCA | condition not met
GGCCGGCAUGGUCCCAGCCUCCUCGCUGGCGCUGGCUGGGCAACAUUCCGAGGGGACCGUCCCCUCGGUCAUGGCGAAUGGGACCCA | condition met
GGCCGGCAUGGUCCCAGCCUCCUCGCUGGCGCCGGCUGGGCAACACUCCGAGGGGACCGUCCCCUCGGUAAUGGCGAAUGGGAGCCA | condition not met
GGCCGGCAUGGUCCCAGCUUCCUCGCUGGCGCCGGCUGGGCAACAUUCCGAGGGGACCGUCCUCUCGGUAAUGGCGAAUGGGACCCA | condition not met
GGCCGCCAUGGUCCCAGCCUCCUCGCUGGGGCCGGCUGGGCAACAUUCCGAGGGGACCGUCCCCUCGGUAAUGGCGAAUGGGACCCA | condition not met
GGGCGGCAUGGUCCCAGCCUCCUCGCUGGCGCCGGCUGAGCAACAUUCCGAGGGGACCGUCCCCUCGGUAAUGGCGAAUGGGACCCA | condition not met
GGCCGGCAUGGUCCCAGCCUCCUCACUGGCGCCGGCUGGGCAACAUUCCGAGGGGACCGUCCCCUCGGUAAUGGCGAAUGGGACCUA | condition not met
GGCCGGCAUGGUCCCAGCCUCCUCGCUAGCGCCGGCUGGGCAACAUUCCGAUGGGACCGUCCCCUCGGUAAUGGCGAAUGGGACCCA | condition not met
GGCCGACAUGGUCCCAGCCUCCUCGCUGGCGCCGGCUGGGCAACAUUCCGAGGGGACCGUCCCCUCGGUAGUGGCGAAUGGGACCCA | condition met
GGCCGGCAUGGUCCCAGCCUCCUCGCUGGCGCCGGCUGGGCAACAUUCCGAGGGGACCGUCCCCUCGGUAAUGGCGAAUGGGACAUA | condition met
GGCCGGCAUGGUCCCAGCCUCCUCGCUGGCGCCGGCUGGGAAACAUUCCGAGGGGACCGUGCCCUCGGUAAUGGCGAAUGGGACCCA | condition met
GGCCGGCAUGGUCCCAGCCUCCUCGCUGGCGCCGGCUGCGCAACACUCCGAGGGGACCGUCCCCUCGGUAAUGGCGAAUGGGACCCA | condition not met
GGCCGGCAUGGUCCCAUCCUCCUCGCUGGCGCCGGCUGGGCAACAUUCCGACGGGACCGUCCCCUCGGUAAUGGCGAAUGGGACCCA | condition met
GGCCGGCAUGGUCCCAGCCUCCUCGCUGGCGCCGGCUGGGUAACAUUCCGAGGGGACCGUCCCCACGGUAAUGGCGAAUGGGACCCA | condition met
GGCCGGCAUGGUCCCAGCCUCCUCGCUGGCGCCGGCUGGGCAUCAUUCCGAGGGGACCGUCCCCUCGGUAAAGGCGAAUGGGACCCA | condition not met
GGCCGGCAUGGUCCCAGCCUCCUCGCUGGCGCCGGCUGGGCAACAUUCCUAGGGGACAGUCCCCUCGGUAAUGGCGAAUGGGACCCA | condition met
GGCCGGCAUGGUCCCAGCCUCCUCGCUGGCGCCGGCUGGGCAACAUUCAGAAGGGACCGUCCCCUCGGUAAUGGCGAAUGGGACCCA | condition met
GGCCGGCAUGGGCCCAGCCUCCUCGCUGGCGCCGGCUGGGCAACAUUCCGAGGGGACCGUUCCCUCGGUAAUGGCGAAUGGGACCCA | condition met
GGCAGGCAUGGUCCCAGCCUCCUCGCUGGAGCCGGCUGGGCAACAUUCCGAGGGGACCGUCCCCUCGGUAAUGGCGAAUGGGACCCA | condition not met
GGCCGGCAUGUUCCCAGCCUCCUCGCUCGCGCCGGCUGGGCAACAUUCCGAGGGGACCGUCCCCUCGGUAAUGGCGAAUGGGACCCA | condition not met
GGGCGGCAUGGUCCCAGCCUCCUCGCUGGCGCCGGCUGGGCAACAUUCCGAGGGGACCGUCCCCUCGGUAAUGGCAAAUGGGACCCA | condition met
GGCCGGCAUGGUCCCAGCCUCCACGCUGGCGCCGGCUGGGUAACAUUCCGAGGGGACCGUCCCCUCGGUAAUGGCGAAUGGGACCCA | condition met
GGCCGGCAUGGUCCCAGCCUCCUCGCUGGCGCCGGCUGGGCAACAUUCCGAGGGGACCGUCCCCUCCGUACUGGCGAAUGGGACCCA | condition met
GGCCGGCAUGGUCCCAGCCUCCUCGCUGGCGCCGGCUGGGCUACAUUCCGAGGGGACCGUCCCCUCGGUAAUGGCGAAUGGGACCUA | condition met
GGCCGGCAUGGUCCCAGCCUCCUCGCUGGCGCCGGCUAGGCAACAUUCCGAGGGGACUGUCCCCUCGGUAAUGGCGAAUGGGACCCA | condition not met
GGCCGGCAUGGUCCCAGCCUCCUAGCUGGUGCCGGCUGGGCAACAUUCCGAGGGGACCGUCCCCUCGGUAAUGGCGAAUGGGACCCA | condition not met
GGCCGGCAUGGUCCCAGCCUCCUCGCUGGCGCCGGCUGGGCAACGUUCCGAGGGGACCGUCCCCUCCGUAAUGGCGAAUGGGACCCA | condition met
GGCCGGCAUGGUCCCAGCCUCCUCGCUGGCGCCGGCUGGGUAACAUUCCGAGUGGACCGUCCCCUCGGUAAUGGCGAAUGGGACCCA | condition met
GGCCGGCAUGGUCCCAGCCUCCUCGCUGGCGCCGGCUGGGCAACAUUCCGAGGGGACCGUCCCCUCGGUAGUAGCGAAUGGGACCCA | condition met
GGCCGGCAUGGUCCCAGUCUCAUCGCUGGCGCCGGCUGGGCAACAUUCCGAGGGGACCGUCCCCUCGGUAAUGGCGAAUGGGACCCA | condition not met
GGCCGGCAUGGUCCCAGCCUCCUUGCUGGCGCCGGCUGGGCAACAUUCCGAGGGGACCGUCCCCUCUGUAAUGGCGAAUGGGACCCA | condition met
GGCCGGCAUGGUCCCAGCCUUCUCGCUAGCGCCGGCUGGGCAACAUUCCGAGGGGACCGUCCCCUCGGUAAUGGCGAAUGGGACCCA | condition not met
GGCCGGCAUGGUCCCAGCCUCCUCCCUGGCGCCGGCUGGGCAACAUUCCGAGGGGACUGUCCCCUCGGUAAUGGCGAAUGGGACCCA | condition not met
GGCCGGCAUGGUCCCAGCCUCUUCGCUGGCGCCGGCUGGGCAACAUUCCGAGGAGACCGUCCCCUCGGUAAUGGCGAAUGGGACCCA | condition met
GGCCGGCAUGGUCCCAGCCUCCUCGCGGGCGCCGGCUGGGCAACAUUCCGAGGGGACCGUCCCCUCGGUAAUGGCCAAUGGGACCCA | condition met
GGCCGGCAUGGUCCCAGCCUCCUCGCUGGCGCCGACGGGGCAACAUUCCGAGGGGACCGUCCCCUCGGUAAUGGCGAAUGGGACCCA | condition not met
GGCCGGCAUGGUCCCAGCCUCCUCGGUGGCGCCGGCUGGGCACCAUUCCGAGGGGACCGUCCCCUCGGUAAUGGCGAAUGGGACCCA | condition met
GGCCGGCCUGGUCCCAGCCUCCUCGCUGGCGCCGGCUGGGCAACAUUCCGAGGGGACCGUCCCCUUGGUAAUGGCGAAUGGGACCCA | condition met
GGCCGGCAGGGUCCCAGCCUCCUCGCUGGCGCCGGCUGGGCAACAUUCCGAGGGGACCGUCCCCUCGGUAAUGGCGAGUGGGACCCA | condition not met
CGCCGGCAUGGUCCCAGCCUCCUCGCUGGCGCCGGCUGGGCAACAUUCCGAGGGGACGGUCCCCUCGGUAAUGGCGAAUGGGACCCA | condition not met
GGCCGGCAUGGGCCCAGCCUCCUCGCUGGCGCCGGCUGGGCAACAUUCCGAGGGGACCGUCCCCUCGGUAAUGGCGAAUGUGACCCA | condition not met
GGCCGGCAUGGUCACAGCCUCCUCGCUGGCGCCGGCUGGGCAACUUUCCGAGGGGACCGUCCCCUCGGUAAUGGCGAAUGGGACCCA | condition met
GGCCGACAUGGUCCCAGCCUCCUCGCUGGCGCCGGCUGGGCCACAUUCCGAGGGGACCGUCCCCUCGGUAAUGGCGAAUGGGACCCA | condition not met
